Data provenance is ChEMBL document CHEMBL1157729.

# System: Vero
# Test name: Cytotoxicity against african green monkey Vero cells up to 4.6 ug/mL after 48 hrs by neutral red assay
# Format: cell-based
# Particulars: chlorocebus sabaeus

Compound: O=C1CC[C@H]2C[C@]34CN5CCCC/C=C\CC[C@](O)(C=C(c6nccc7c6[nH]c6c(O)cccc67)[C@@H]3CC5)[C@@H]4N2CC/C1=C/c1ccc(F)cc1
Activity: Non-toxic

Compound: CC(C)CCn1c2ccccc2c2ccnc(C3=C[C@@]4(O)CC/C=C\CCCCN5CC[C@@H]3[C@]3(C[C@@H]6/C=C\CCCCN6[C@H]34)C5)c21 [9-N-ISOPENTYLMANZAMINE A]
Activity: Non-toxic

Compound: COc1ccc(/C=C2/CCN3[C@@H](CCC2=O)C[C@]24CN5CCCC/C=C\CC[C@](O)(C=C(c6nccc7c6[nH]c6c(O)cccc67)[C@@H]2CC5)[C@H]34)cc1
Activity: Non-toxic
